System: Respiratory syncytial virus
Assay: Antiviral activity against RSV A2 in MA104 cells by CPE assay
Format: functional, organism-based
Conditions: human respiratory syncytial virus
For each entry below, report its EC50 value.
Numbers only; they are read as µg/mL.

// recorded EC50 for C/C=C(/C)C(=O)O[C@@H]1[C@@H]2OC[C@]3(C)[C@H](O)C[C@H](OC(C)=O)[C@@](C)([C@@H]23)[C@H]2C[C@H](OC(C)=O)[C@]3(C)C(=CC[C@H]3C3COC(=O)C3)[C@]12C (some centres undefined) : 2

// recorded EC50 for CC(=O)O[C@H]1C[C@H]2[C@](C)(C3=CC[C@@H](C4COC(=O)C4)[C@@]31C)[C@H](OC(=O)c1ccccc1)[C@@H]1OC[C@]3(C)[C@H](O)C[C@H](OC(C)=O)[C@@]2(C)[C@@H]13 (some centres undefined) : 4

// recorded EC50 for NC(=O)c1ncn([C@@H]2O[C@H](CO)[C@@H](O)[C@H]2O)n1 : 3.6

// recorded EC50 for CC(=O)O[C@H]1C[C@H]2[C@](C)(C3=CC[C@@H](C4COC(=O)C4)[C@@]31C)[C@H](OC(=O)/C=C(\C)C(C)C)[C@@H]1OC[C@]3(C)[C@H](O)C[C@H](OC(C)=O)[C@@]2(C)[C@@H]13 (some centres undefined) : 1

----------
For each entry below, report its EC50 value.
Test system: Respiratory syncytial virus
Experiment: Antiviral activity against RSV A2 in MA104 cells by plaque reduction assay
Assay type: functional, organism-based
Conditions: human respiratory syncytial virus
Numbers only; they are read as µg/mL.

// recorded EC50 for CC(=O)O[C@H]1C[C@H]2[C@](C)(C3=CC[C@@H](C4COC(=O)C4)[C@@]31C)[C@H](OC(=O)c1ccccc1)[C@@H]1OC[C@]3(C)[C@H](O)C[C@H](OC(C)=O)[C@@]2(C)[C@@H]13 (stereo not given in full) [DYSOXYLIN B] : 30

// recorded EC50 for NC(=O)c1ncn([C@@H]2O[C@H](CO)[C@@H](O)[C@H]2O)n1 [RIBAVIRIN] : 20

// recorded EC50 for CCC(C)C(=O)O[C@@H]1[C@@H]2OC[C@]3(C)[C@H](O)C[C@H](OC(C)=O)[C@@](C)([C@@H]23)[C@H]2C[C@H](OC(C)=O)[C@]3(C)C(=CC[C@H]3C3COC(=O)C3)[C@]12C (stereo not given in full) [DYSOXYLIN C] : 146

// recorded EC50 for CC(=O)O[C@H]1C[C@H]2[C@](C)(C3=CC[C@@H](C4COC(=O)C4)[C@@]31C)[C@H](OC(=O)/C=C(\C)C(C)C)[C@@H]1OC[C@]3(C)[C@H](O)C[C@H](OC(C)=O)[C@@]2(C)[C@@H]13 (stereo not given in full) [DYSOXYLIN D] : 40

// recorded EC50 for C/C=C(/C)C(=O)O[C@@H]1[C@@H]2OC[C@]3(C)[C@H](O)C[C@H](OC(C)=O)[C@@](C)([C@@H]23)[C@H]2C[C@H](OC(C)=O)[C@]3(C)C(=CC[C@H]3C3COC(=O)C3)[C@]12C (stereo not given in full) [DYSOXYLIN A] : 150
